Assay: in vitro
Settings: dog, plasma, pH 7.4
Description: Fraction unbound (%) in dog plasma at pH 7.4 after 18 hrs by equilibrium dialysis
Reported fraction unbound at 18 h values follow for various compounds
PARAMETER_MEASURED: fraction unbound at 18 h

| COMPOUND | PARAMETER_MEASURED | VALUE_REPORTED |
| --- | --- | --- |
| O=c1[nH]c2ccccc2n1C1CCN(CCCC(c2ccc(F)cc2)c2ccc(F)cc2)CC1 [PIMOZIDE] | fraction unbound at 18 h | 0.0004 |
| CCCc1nn(C)c2c(=O)[nH]c(-c3cc(S(=O)(=O)N4CCN(C)CC4)ccc3OCC)nc12 | fraction unbound at 18 h | 0.26 |
| COc1cc([C@@H]2c3cc4c(cc3[C@@H](O[C@@H]3O[C@@H]5CO[C@@H](C)O[C@H]5[C@H](O)[C@H]3O)[C@H]3COC(=O)[C@H]23)OCO4)cc(OC)c1O [ETOPOSIDE] | fraction unbound at 18 h | 0.63 |
| Cc1cc(O)c(C(=O)N[C@@H](C(=O)N[C@@H]2C(=O)N3C(C(=O)O)=C(CSc4nnnn4C)CS[C@H]23)c2ccc(O)cc2)cn1 [CEFPIRAMIDE] | fraction unbound at 18 h | 0.6 |
| CO[C@@]1(NC(=O)C2SC(=C(C(N)=O)C(=O)O)S2)C(=O)N2C(C(=O)O)=C(CSc3nnnn3C)CS[C@@H]21 (stereo not given in full) [CEFOTETAN] | fraction unbound at 18 h | 0.61 |

* * *

Experiment: in vitro
Details: rat, plasma, pH 7.4
Description: Fraction unbound (%) in rat plasma at pH 7.4 after 18 hrs by equilibrium dialysis
Reported fraction unbound at 18 h values follow for various molecules
PARAMETER_MEASURED: fraction unbound at 18 h

| MOLECULE | PARAMETER_MEASURED | VALUE_REPORTED |
| --- | --- | --- |
| CCCC(CCC)C(=O)O | fraction unbound at 18 h | 0.88 |
| CCOc1ccccc1OCCN[C@H](C)Cc1ccc(OC)c(S(N)(=O)=O)c1 | fraction unbound at 18 h | 0.2 |
| COc1cc([C@@H]2c3cc4c(cc3[C@@H](O[C@@H]3O[C@@H]5CO[C@@H](C)O[C@H]5[C@H](O)[C@H]3O)[C@H]3COC(=O)[C@H]23)OCO4)cc(OC)c1O [ETOPOSIDE] | fraction unbound at 18 h | 0.52 |
| CO[C@@]1(NC(=O)C2SC(=C(C(N)=O)C(=O)O)S2)C(=O)N2C(C(=O)O)=C(CSc3nnnn3C)CS[C@@H]21 (stereo not given in full) | fraction unbound at 18 h | 0.7 |
| c1ccc(C(O[C@@H]2CCCN(CCc3ccc4c(c3)OCO4)C2)c2ccccc2)cc1 | fraction unbound at 18 h | 0.002 |

* * *

Assay: Fraction unbound (%) in mouse plasma at pH 7.4 after 18 hrs by equilibrium dialysis
Type: ADME, cell-free

| SMILES_STRING | fraction unbound at 18 h |
| --- | --- |
| CC[C@@H](c1ccccc1)c1c(O)c2ccccc2oc1=O | 0.11 |

* * *

Test: in vitro
Settings: human, plasma, pH 7.4
Description: Fraction unbound (%) in human plasma at pH 7.4 after 18 hrs by equilibrium dialysis
Decision: fraction unbound at 18 h compared against 0.007; not below it gives label 1, below it gives label 0.

| MOLECULE | ANSWER_LABEL |
| --- | --- |
| CO[C@@]1(NC(=O)C2SC(=C(C(N)=O)C(=O)O)S2)C(=O)N2C(C(=O)O)=C(CSc3nnnn3C)CS[C@@H]21 (stereo partly drawn) [CEFOTETAN] | label 1 |
| c1ccc(C(O[C@@H]2CCCN(CCc3ccc4c(c3)OCO4)C2)c2ccccc2)cc1 [ZAMIFENACIN] | label 0 |
| COc1cc([C@@H]2c3cc4c(cc3[C@@H](O[C@@H]3O[C@@H]5CO[C@@H](C)O[C@H]5[C@H](O)[C@H]3O)[C@H]3COC(=O)[C@H]23)OCO4)cc(OC)c1O [ETOPOSIDE] | label 1 |
| O=c1[nH]c2ccccc2n1C1CCN(CCCC(c2ccc(F)cc2)c2ccc(F)cc2)CC1 [PIMOZIDE] | label 0 |
| Cc1cc(O)c(C(=O)N[C@@H](C(=O)N[C@@H]2C(=O)N3C(C(=O)O)=C(CSc4nnnn4C)CS[C@H]23)c2ccc(O)cc2)cn1 [CEFPIRAMIDE] | label 1 |
| CCCC(CCC)C(=O)O [VALPROIC ACID] | label 1 |
| CCCc1nn(C)c2c(=O)[nH]c(-c3cc(S(=O)(=O)N4CCN(C)CC4)ccc3OCC)nc12 | label 1 |
